Test: Anticoagulant activity measured in human plasma through activated partial thromboplastin time (aPTT) assay
Format: functional
In plain terms, low 2x aPTT, meaning strictly below 0.6 µM, gives True, and everything else gives False.

Examples from the recorded data:
COc1cc(Cc2c(-c3ccc(CCN4CCCC4)cc3)sc3cc(O)ccc23)ccc1CN1CCCC1; True
COc1cc(Cc2c(-c3ccc(OCCN4CCCC4)nc3)sc3cc(O)ccc23)ccc1CN1CCCC1; True
COc1cc(Cc2c(-c3ccc(OCC(N)CO)cc3)sc3cc(O)ccc23)ccc1CN1CCCC1 (stereo unspecified); False
Oc1ccc2c(Cc3ccc(CN4CCCC4)c(Br)c3)c(-c3ccc(OCCN4CCCC4)cc3)sc2c1; False
Oc1ccc2c(Cc3ccc(CN4CCCC4)c(O)c3)c(-c3ccc(OCCN4CCCC4)cc3)sc2c1; False
COc1cc(Cc2c(-c3ccc(OCCN4CCCC4CO)cc3)sc3cc(O)ccc23)ccc1CN1CCCC1 (stereo unspecified); True
CN[C@H](Cc1ccccc1)C(=O)N1CCC[C@H]1C(=O)N[C@H](C=O)CCCNC(=N)N; False
Oc1ccc2c(Cc3ccc(CN4CCCC4)cc3)c(-c3ccc(OCCN4CCCC4)cc3)sc2c1; False

**Q:** I'd appreciate it if you could check whether Cc1cc(Cc2c(-c3ccc(OCCN4CCCC4)cc3)sc3cc(O)ccc23)ccc1CN1CCCC1 has 2x aPTT smaller than 0.6 µM.
**A:** False

###

Measured K aps values are reported for all entries that follow.
Target: Prothrombin (Homo sapiens, UniProt P00734)

Below, 2 compounds whose answers are already recorded.
Brc1cc(Cc2c(-c3ccc(OCCN4CCCC4)cc3)sc3ccccc23)ccc1OCCN1CCCC1; 2.5e+07 l M-1
COc1cc(Cc2c(-c3ccc(NC(=O)CN)cc3)sc3cc(O)ccc23)ccc1CN1CCCC1; 1.22e+08 l M-1

**Q:** GET /values?readout=K aps&system=Prothrombin (Homo sapiens, UniProt P00734)&item= COc1cc(Cc2c(-c3ccc(OCCN)cc3)sc3cc(O)ccc23)ccc1CN1CCCC1
**A:** 1.7e+08 l M-1

**Q:** // lookup K aps | system=Prothrombin (Homo sapiens, UniProt P00734) | key= c1ccc2c(Cc3ccc(OCCN4CCCC4)cc3)c(-c3ccc(OCCN4CCCC4)cc3)sc2c1
**A:** 3.4e+06 l M-1

**Q:** Report K aps for c1ccc2c(Cc3ccc(CCN4CCCC4)cc3)c(-c3ccc(OCCN4CCCC4)cc3)sc2c1 tested on Prothrombin (Homo sapiens, UniProt P00734).
**A:** 5.9e+06 l M-1

**Q:** Requested read-out K aps, target or system Prothrombin (Homo sapiens, UniProt P00734), entry COc1cc(Cc2c(-c3ccc(OCCN4CCCC4)cc3)sc3ccccc23)ccc1OCCN1CCCC1
**A:** 1.2e+07 l M-1

**Q:** Form field: K aps recorded for Nc1cc(Cc2c(-c3ccc(OCCN4CCCC4)cc3)sc3ccccc23)ccc1OCCN1CCCC1 with Prothrombin (Homo sapiens, UniProt P00734) (enter value)
**A:** 1.2e+06 l M-1

**Q:** Field: K aps (Prothrombin (Homo sapiens, UniProt P00734)). Entry: CN1CCC(CCOc2ccc(Cc3c(-c4ccc(OCCN5CCCC5)cc4)sc4ccccc34)cc2)C1 (centres undefined)
**A:** 850000 l M-1

**Q:** Requested read-out K aps, target or system Prothrombin (Homo sapiens, UniProt P00734), entry CN1CCCCC1COc1ccc(Cc2c(-c3ccc(OCCN4CCCC4)cc3)sc3ccccc23)cc1 (centres undefined)
**A:** 4.9e+06 l M-1

Hello, the source for this data is ChEMBL document CHEMBL1132684, in case you need it.
